Entry source: patent US20060069132A1

Test system: Surinam grass
Test: Test B pre-/postemergence herbicide test
Assay type: in vivo, Urochloa decumbens
Conditions: Postemergence, 500 g ai/ha; visual rating after 13 to 15 days, scale 0 (no effect) to 100 (complete control)
# Plant response rating, Surinam Grass listing for each entry below
// return a plain number; no unit text

Supply recorded Plant response rating, Surinam Grass for CCCCOC(=O)c1cccc(NC(=O)c2cc(C(C)(C)C)nn2CC)c1 here.
100

Supply recorded Plant response rating, Surinam Grass for C#CCNC(=O)c1cccc(NC(=O)c2cc(C(C)(C)C)nn2CC)c1 here.
40

Supply recorded Plant response rating, Surinam Grass for CCn1nc(C(C)(C)C)cc1C(=O)Nc1cccc(C(=O)OCC(F)(F)F)c1 here.
40

###

Test system: morningglory
Experiment: Test C pre-/postemergence herbicide test
Type: in vivo, Ipomoea coccinea
Design: key: 0 = no effect, 100 = complete control
Settings: 62 g ai/ha; preemergence; scale 0 to 100
Property Measured: Plant response rating, Morningglory

{"Compound": "CCc1nn(C(C)(C)C)nc1C(=S)Nc1cccc(C(=S)N(C)C)c1", "Reported Value": 0}
{"Compound": "CCn1nc(C(C)(C)C)cc1C(=S)Nc1cc(C(=S)N(C)C)ccc1F", "Reported Value": 0}
{"Compound": "CCn1nc(C(C)(C)C)cc1C(=O)Nc1cc(C(=S)N(C)C)ccc1F", "Reported Value": 30}
{"Compound": "CCC1=NN(C(C)(C)C)CC1C(=O)Nc1cc(C(=O)N(C)C)ccc1F (racemic)", "Reported Value": 5}
{"Compound": "CCNC(=O)c1cccc(NC(=O)c2sc(C(C)(C)C)nc2CC)c1", "Reported Value": 0}
{"Compound": "CCn1nc(C(C)(C)C)cc1C(=O)Nc1cccc(OC(F)F)c1", "Reported Value": 0}
{"Compound": "C=CCNC(=O)c1cccc(NC(=O)c2sc(C(C)(C)C)nc2CC)c1", "Reported Value": 0}
{"Compound": "CCOC(=O)c1cccc(NC(=O)c2nn(C(C)(C)CC)nc2CC)c1", "Reported Value": 0}

Supply recorded Plant response rating, Morningglory for CCN(C)C(=O)c1ccc(F)c(NC(=O)C2CC(C(C)(C)C)=NN2CC)c1 (racemic) here.
0

Supply recorded Plant response rating, Morningglory for CCn1nc(C(C)(C)C)cc1C(=O)Nc1cc(C(=S)N(C)C)ccn1 here.
5

###

Test system: redroot pigweed
Assay: Test A pre-/postemergence herbicide test
Type: in vivo, Amaranthus retroflexus
Conditions: Preemergence, 2000 g ai/ha; 0 to 100 scale, 0 no effect, 100 complete control
# Pigweed plant response rating listing for each entry below
// return a plain number; no unit text

The examples below pair each entry with its known result.
{"Compound": "CCOC(=O)c1ccc(F)c(NC(=O)c2cc(C(C)(C)C)nn2CC)c1 [Compound 70]", "Tested Target": "redroot pigweed", "Property Measured": "Pigweed plant response rating", "Reported Value": 5}
{"Compound": "CCCCOC(=O)c1cccc(NC(=O)c2cc(C(C)(C)C)nn2CC)c1 [Compound 86]", "Tested Target": "redroot pigweed", "Property Measured": "Pigweed plant response rating", "Reported Value": 55}
{"Compound": "CCn1nc(C(C)(C)C)cc1C(=O)Nc1cccc(C(=O)OCC(F)(F)F)c1 [Compound 83]", "Tested Target": "redroot pigweed", "Property Measured": "Pigweed plant response rating", "Reported Value": 0}
{"Compound": "CCCOC(=O)c1cccc(NC(=O)c2cc(C(C)(C)C)nn2CC)c1C [Compound 90]", "Tested Target": "redroot pigweed", "Property Measured": "Pigweed plant response rating", "Reported Value": 70}

Supply recorded Pigweed plant response rating for CCNC(=O)c1cc(NC(=O)c2cc(C(C)(C)C)nn2CC)ccc1F [Compound 58] here.
100
